Provenance of the data: paper PMC11647725

target: CYP 2D6 (Homo sapiens); construct: from tissue; host or cells: pooled human liver microsomes (per the earlier reading); test: P450 inhibition in pooled human liver microsomes; assay type: in vitro ADME; settings: pooled HLM, NADPH, CYP-specific probe substrates; listed as VU6043653
Sequence (P10635 whole entry): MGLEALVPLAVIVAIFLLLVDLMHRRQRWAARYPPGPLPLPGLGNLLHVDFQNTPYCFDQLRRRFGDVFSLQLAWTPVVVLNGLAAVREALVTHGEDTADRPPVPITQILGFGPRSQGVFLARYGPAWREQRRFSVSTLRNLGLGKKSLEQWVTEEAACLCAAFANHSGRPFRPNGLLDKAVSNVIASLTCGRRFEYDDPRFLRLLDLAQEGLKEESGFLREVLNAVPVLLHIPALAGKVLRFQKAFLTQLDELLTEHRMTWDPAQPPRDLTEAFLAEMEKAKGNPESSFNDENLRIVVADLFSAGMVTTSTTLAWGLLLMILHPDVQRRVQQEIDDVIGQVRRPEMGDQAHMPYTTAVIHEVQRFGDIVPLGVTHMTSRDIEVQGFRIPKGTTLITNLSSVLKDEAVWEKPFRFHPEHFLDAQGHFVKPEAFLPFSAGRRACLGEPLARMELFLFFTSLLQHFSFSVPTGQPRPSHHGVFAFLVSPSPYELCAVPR
pIC50: −log10 of the molar value.
EXPERIMENTAL READOUT: pIC50

Request: Supply pIC50 value. Item: Cc1cc(Oc2cnn(C)c2)cc(C(=O)Nc2ccc(F)cn2)n1 [22iA]
Response: ≤ 4.52

###

assay: Binding in plasma from human (equilibrium dialysis); type: in vitro ADME; conditions: human, plasma, read-out: Human fu,plasma
Parameter fraction unbound at 6 h, 5 µM: see the listing below.
Could you keep your reply to the number by itself?

> print(dat)
                                   molecule  meas.value
1  Cc1cccc(NC(=O)c2cc(Oc3ccnn3C)cc(C)n2)n1 [22hC]       0.034

Please turn your attention to the following entry.
Request: Supply fraction unbound at 6 h, 5 µM value. Item: Cc1cc(Oc2cnn(C)c2C(F)(F)F)cc(C(=O)Nc2ccc(F)cn2)n1 [22gA]
Response: 0.012

###

target: human mGlu5 (Homo sapiens, UniProt P41594); construct: expressed in transfected cells; assay: Calcium mobilization assay in human mGlu5-HEK293A cells (NAM, EC80 glutamate); type: cell-based; details: 22fC vs 22bC; 22gA vs 22iA; 22iA vs 22hA; 22iB vs 22hB
Sequence (P41594 21-1212): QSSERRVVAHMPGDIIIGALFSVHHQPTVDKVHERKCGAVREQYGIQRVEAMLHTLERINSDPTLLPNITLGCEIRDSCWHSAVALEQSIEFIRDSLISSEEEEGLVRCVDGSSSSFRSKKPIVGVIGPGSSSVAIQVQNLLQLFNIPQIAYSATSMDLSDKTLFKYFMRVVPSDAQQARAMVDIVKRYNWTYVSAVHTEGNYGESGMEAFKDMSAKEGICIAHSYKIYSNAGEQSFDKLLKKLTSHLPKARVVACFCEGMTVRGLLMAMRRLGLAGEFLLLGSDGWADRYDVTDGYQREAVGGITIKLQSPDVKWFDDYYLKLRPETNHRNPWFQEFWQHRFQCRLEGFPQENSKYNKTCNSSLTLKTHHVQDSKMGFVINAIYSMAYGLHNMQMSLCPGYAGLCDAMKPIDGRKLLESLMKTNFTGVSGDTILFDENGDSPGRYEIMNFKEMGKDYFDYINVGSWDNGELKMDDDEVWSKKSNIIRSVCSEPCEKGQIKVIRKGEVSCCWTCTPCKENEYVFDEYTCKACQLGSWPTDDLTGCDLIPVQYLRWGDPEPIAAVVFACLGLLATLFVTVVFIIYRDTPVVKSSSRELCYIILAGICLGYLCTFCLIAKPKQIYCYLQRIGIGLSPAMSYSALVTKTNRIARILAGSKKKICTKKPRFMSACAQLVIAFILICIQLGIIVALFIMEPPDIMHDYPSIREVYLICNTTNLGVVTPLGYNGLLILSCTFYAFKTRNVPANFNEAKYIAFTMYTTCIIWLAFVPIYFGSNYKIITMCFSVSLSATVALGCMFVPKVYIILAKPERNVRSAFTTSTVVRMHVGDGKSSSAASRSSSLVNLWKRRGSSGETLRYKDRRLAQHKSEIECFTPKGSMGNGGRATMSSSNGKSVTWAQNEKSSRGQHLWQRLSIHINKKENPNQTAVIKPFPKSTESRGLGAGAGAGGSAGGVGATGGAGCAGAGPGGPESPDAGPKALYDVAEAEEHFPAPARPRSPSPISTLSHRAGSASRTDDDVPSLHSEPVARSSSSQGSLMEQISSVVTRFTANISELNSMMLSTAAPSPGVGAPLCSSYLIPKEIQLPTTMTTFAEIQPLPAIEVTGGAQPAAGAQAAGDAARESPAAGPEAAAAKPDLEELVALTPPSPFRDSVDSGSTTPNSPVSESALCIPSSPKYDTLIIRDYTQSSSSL
Parameter fold increase in hmGlu5 potency: see the listing below.
Supply the numeric figure in fold, leaving out any unit text.

Please review the following examples before continuing.
> print(dat)
                                   compound                           measured.target  measurement.unit  meas.value
1  Cc1cc(Oc2cnn(C)c2)cc(C(=O)Nc2ccc(F)cn2)n1 [22iA]  human mGlu5 (Homo sapiens, UniProt P41594)              fold         1.6
2  Cc1cc(Oc2cnn(C)c2)cc(C(=O)Nc2nc(C)cs2)n1 [22iB]  human mGlu5 (Homo sapiens, UniProt P41594)              fold         3.4

Please turn your attention to the following entry.
Request: Supply fold increase in hmGlu5 potency value. Item: Cc1cccc(NC(=O)c2cc(Oc3cc(C)nn3C)cc(C)n2)n1 [22fC]
Response: 7.8

###

experiment: IV plasma-brain level determination (PBL) in rat; type: in vivo; conditions: male, Sprague-Dawley, brain and plasma, SD rat, 0.2 mg/kg IV, unbound brain-to-plasma partition ratio
Parameter Kp uu at 0.25 h: see the listing below.
Could you keep your reply to the number by itself?

Please review the following examples before continuing.
> print(dat)
                                   compound  meas.value
1  Cc1cc(Oc2cnn(C)c2)cc(C(=O)Nc2nc(C)cs2)n1 [22iB]        0.22
2  Cc1cccc(NC(=O)c2cc(Oc3cnn(C)c3)cc(C)n2)n1 [22iC]        0.23
3  Cc1cc(Oc2cnn(C)c2)cc(C(=O)Nc2ccc(F)cn2)n1 [22iA]        0.34

Please turn your attention to the following entry.
Request: Supply Kp uu at 0.25 h value. Item: Cc1cc(Oc2ccnn2C)cc(C(=O)Nc2nc(C)cs2)n1 [22hB]
Response: 0.15
